These entries and their values trace back to patent US20250002574A1.

# Assay Target: T1, IL-11 (UniProt P20809 22-199, limits assumed)
# T1 construct: also called IL-11 protein; IL-11 antigen
# T1 sequence (looked up): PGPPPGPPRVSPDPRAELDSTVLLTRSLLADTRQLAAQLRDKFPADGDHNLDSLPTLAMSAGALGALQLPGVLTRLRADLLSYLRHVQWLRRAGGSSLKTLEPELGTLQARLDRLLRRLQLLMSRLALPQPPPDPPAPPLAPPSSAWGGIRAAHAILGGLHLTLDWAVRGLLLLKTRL
# Test Method Notes: phage ELISA on IL-11
Endpoint Name: ELISA

Binder: Original sequence (1H9) (scFv, Template scFv of the phage library, on phage; also called ScFv VH-Linker-VL of VH1+VL3) scFv: QVQLVQSGAEVKKPGASVKVSCKASDYTFTNYWLGWVRQAPGQGLEWMGHIYPGGGYTNYNEKFKGRVTMTRDTSTSTVYMELSSLRSEDTAVYYCARVRSGNDALDFWGQGTLVTVSSGGGGSGGGGSGGGGSEIVLTQSPATLSLSPGERATLSCRASESVDEYGISFMNWFQQKPGQAPRLLIYSASNQGSGIPARFSGSGSGTDFTLTISSLEPEDFAVYFCQQSKEVPWTFGGGTKLEIK
Endpoint Name: ELISA
Observed Measurement: 1.16
//
Binder: 1E12 (scFv, As m119: scFv on phage) scFv: QVQLVQSGAEVKKPGASVKVSCKASDYTFTNYWLGWVRQAPGQGLEWMGHIYPGGGYTNYNEKFKGRVTMTRDTSTSTVYMELSSLRSEDTAVYYCARVSSGNDALDLWGQGTLVTVSSGGGGSGGGGSGGGGSEIVLTQSPATLSLSPGERATLSCRASESVDEYGISFMNWFQQKPGQAPRLLIYSGSNEGSGIPARFSGSGSGTDFTLTISSLEPEDFAVYFCNQSKEVPWTFGGGTKLEIK
Endpoint Name: ELISA
Observed Measurement: 2.2
//
Binder: 2G9 (scFv, As m119: scFv on phage) scFv: QVQLVQSGAEVKKPGASVKVSCKASDYTFTNYWLGWVRQAPGQGLEWMGHIYPGGGYTNYNEKFKGRVTMTRDTSTSTVYMELSSLRSEDTAVYYCARVSSGNDALDFWGQGTLVTVSSGGGGSGGGGSGGGGSEIVLTQSPATLSLSPGERATLSCRASESVDEYGISFMNWFQQKPGQAPRLLIYGASNQGSGIPARFSGSGSGTDFTLTISSLEPEDFAVYFCQQSKELPWTFGGGTKLEIK
Endpoint Name: ELISA
Observed Measurement: 2.09
